- study system: SARS-CoV-2 nsp13 helicase (Severe acute respiratory syndrome coronavirus 2)
- test summary: biochemical
- Assay type: biochemical
- test settings: IC50 + 0.02% Tween-20
parameter measured: IC50

CCCCCCCC/C=C\CCCCCCCC(=O)O ... 58 µM
Cc1cc(O[C@@H](CCC(F)(F)F)c2ccc(C(=O)NCCC(=O)O)cc2)cc(C)c1-c1ccc(C(C)(C)C)cc1 ... 103 µM
CC(C)c1cc(C(C)C)c(CC(=O)NS(=O)(=O)Oc2c(C(C)C)cccc2C(C)C)c(C(C)C)c1 ... 13 µM
CC1=C(/C=C/C(C)=C/C=C/C(C)=C/C(=O)Nc2ccc(O)cc2)C(C)(C)CCC1 [Fenretinide] ... > 250 µM

// IC50 lookup, key: `CC(C)(C[C@H]1CN(S(=O)(=O)c2cccc(C(F)(F)F)c2)c2cc(-c3cc(F)cc(OC(F)F)c3)ccc2O1)C(=O)O`
38 µM

// IC50 lookup, key: `CN(C)CC[C@H](CSc1ccccc1)Nc1ccc(S(=O)(=O)NC(=O)c2ccc(N3CCN(Cc4ccccc4-c4ccc(Cl)cc4)CC3)cc2)cc1[N+](=O)[O-]`
> 250 µM

// IC50 lookup, key: `CCCCCCCC/C=C/CCCCCCCC(=O)O`
> 250 µM
